The origin of these recorded values is a melting point compilation (Tetko et al.; mined from patent text by program, amines drawn as free bases though some values may be those of a salt).

OBSERVABLE: melting point

Query (molecule): Cc1cc(-n2ccnc2)cc2ccc(=O)[nH]c12 ; field requested: melting point 259 to 262 °C

Now try N#Cc1c(N2CCCCC2)cc(-c2ccc3ccccc3c2)c2c1-c1ccccc1C2=O . 166 to 167 °C

Item: CCc1cc2c(cc1Sc1ccc(C(=O)O)cc1)C(C)(C)CCC2(C)C 82 to 83 °C

* * *

Kindly supply the reported melting point values for the records listed here.

I'd like to know its melting point. The compound in question is CC1(C)CN(c2ncc(C(=O)N(CC3CC3)c3cc(C(F)(F)F)ccc3F)c(N)n2)C(=O)N1 188 to 189 °C

Also CC(=O)NC[C@H]1CN(c2ccc(N3CC(O[Si](C)(C)C(C)(C)C)C3)c(F)c2)C(=O)O1 , if possible. 184 °C

How about this compound: CCOC(=O)C1=C(C)NC(C)=C(C(=O)OCC)C1c1ncccc1O 238 to 239 °C

Try this compound too: CCCc1ccc(C(O)(c2c(C)cc(C)c(C)c2OC)C(C)C)cc1 (stereo unspecified) 59 to 60 °C

Ok, now CCOC(=O)c1c(C(F)(F)F)nc(C(F)F)c(C(=O)OC)c1N(C)C1CC1 37 to 40 °C

Cool, now CC1(C)C(=O)NC(=O)c2cc3nc(-c4ccncc4)[nH]c3cc21 218 to 221 °C

Subsequent entry: N#Cc1ccnc(OCc2nc3cc(Cl)ccc3s2)c1 224 to 227 °C

And for CN(C)C=CC(=O)c1cccc(Cl)c1 ? 68 to 70 °C

Item: CCOC(=O)COc1cccc2c1CCc1sc(SC(c3ccccc3)c3ccccc3)nc1-2 124 to 126 °C

Next compound: NC[C@H]1CNc2cccc(-c3ccccc3Cl)c2O1 135 °C

Same lookup for Cc1oc(-c2ccco2)nc1COc1ccc(COc2nn(Cc3ccccc3)cc2CO)cc1OCc1ccccc1 , please. 145 to 146 °C

* * *

OBSERVABLE: melting point

// query melting point value for entry C=CCOc1cc(C(=O)CCCCCCCCCCCCC)c(O)c(C)c1C 65 to 66 °C

Likewise for CC1(C)C(=O)N(CCCl)C(=O)N1CCCl ? 77 to 79 °C

Repeat for the following compound: COc1ccc(-c2nc(/C=C/c3nccn3C)nc3cc(OC)c(OC)cc23)cc1OC 180 to 181 °C

Another compound to look at: O=C(c1cccc(O)c1)C(O)c1cccc(O)c1 (stereo unspecified) 159 to 162 °C

Cn1c(S(=O)(=O)CCO)nnc1S(=O)(=O)CCO ? 176 to 177 °C

Moving on to the next compound: O=C(c1ccc(F)cc1)C1CCN(CC2CSc3ccc(F)cc3C2)CC1 (stereo unspecified) 98 to 102 °C

Likewise for COc1cc(OC)c2cnc(-c3cc(C)c(OCCO)c(C)c3)nc2c1 ? 169 to 170 °C

Another compound to look at: CCOC(=O)Nc1cc(I)c(NS(C)(=O)=O)cc1OC 153 to 155 °C

Again, but for Cc1cn2c(N)c(Cl)cc(C(=O)NCC3CCN(CC(=O)C(C)(C)C)CC3)c2n1 198 °C

Repeat for the following compound: COc1ccc2c([N+](=O)[O-])c(-c3ccc(OCc4ccccc4)cc3)[nH]c(=O)c2c1 252 to 254 °C

Try the compound Nc1ccccc1C(=O)NCCc1cccnc1 126 to 128 °C

// repeat for CSC(=NC#N)NS(=O)(=O)c1cc(Cl)ccc1Cl and report 145 °C

Please do the same for Cn1cncc1C(O)(c1ccc(C(=O)O)cc1)c1ccc2c(c1)c(-c1cccc(Cl)c1)cc(=O)n2C (stereo unspecified) as well. > 260 °C

And what about the compound O=C1NC(NCC2CC2)=N/C1=C\c1c[nH]c2ncc(N3CCOCC3)cc12 ? 331 °C

Would you kindly repeat that for COc1ccc(-n2cnc(SC)n2)cc1 ? 54.9 °C

Again, but for Nc1nc(C2CCN(C(=O)c3ccccc3)CC2)c2ccccc2n1 138 °C

Would you mind doing O=C(O)c1ccccc1Nc1ccc(CCc2ccc(N3CC[C@@H]4CCCC[C@H]4C3)cc2)cc1 as well? 203 to 206 °C

Try O=C(Nc1cccc(C(F)(F)F)c1)c1cccnc1Cl next. 117 to 118 °C

Item: O=C(O)CCC=C(c1ccccc1)c1ccccc1 80 to 81.5 °C

Check NC(=O)CCCCCOc1cc(-c2ccccc2)cc(-c2ccccc2)n1 too. 118 to 120 °C

What about O=C(O)c1cc(Oc2ccc(Cl)cc2Cl)ccc1Br ? 132 to 133 °C

Now consider Cc1cc(-n2cnnc2)ccc1[N+](=O)[O-] . 208 to 210 °C

CCOC(=O)c1cc(-n2c(=O)c3c(n(C)c2=O)CCC3)ccc1Cl ? 141 to 143 °C

What would you report for Fc1ccc(Nc2ncnc3cc(-c4ccco4)ccc23)cc1Cl ? > 250 °C

Further, for CC(C)C(=O)NCc1ccc(NC(=O)/C=C/c2cnn(C)c2-c2ccc(F)cc2)cc1 ? 258 to 259 °C

Next compound: CN(C)S(=O)(=O)c1ccc2c(c1)S(=O)(=O)NC(C(F)(F)F)=N2 240 to 242 °C
